Tested on: A549/ATCC NSCLC
method-notes: NCI-60 one-dose screen, 48 h (100 = growth as untreated, 0 = no growth, -100 = all killed)
assay-setup: 10 µM unless noted
Description: Growth inhibition of the A549/ATCC human Non-Small Cell Lung tumor cell line is measured as a screen for anti-cancer activity. Cells are grown in 96 well plates and exposed to the test compound for 48 hours. Compounds are tested at a single concentration, which is 10^-5 M for most compounds. The reported endpoint is percent growth (GI% or GIPRCNT), where numbers from 0 - 100% represent growth inhibition, and numbers from -100% - 0 represent cell death. […]
Compounds without any hit were thinned out: in the full panel of roughly 83,000, 20% have a hit.
# growth listing for each entry below
Note: unit % is implicit; provide only the numeric part.

COc1cc2oc(-c3ccc(O)cc3)cc(=O)c2c(O)c1-c1c(OC)cc(O)c2c(=O)cc(-c3ccc(O)cc3)oc12
69.8
CN1C(=O)N(C)C2Nn3c(s/c(=C\c4ccccc4)c3=O)=NC21 (stereo unspecified)
94.8
CCc1ccc(Oc2c(-c3ccc(OCCc4cccc(C(F)(F)F)c4)cc3O)n[nH]c2C(F)(F)F)cc1
55.9
Cc1cc(Cl)ccc1NS(=O)(=O)c1ccc(-c2cnc(C3CC3)o2)cc1
28.4
O=C1/C(=C/c2ccccc2[N+](=O)[O-])Oc2ccc(O)c(O)c21
72.3
N[C@@H](Cc1ccccc1)[C@@H](O)C(=O)NCc1ccc(F)cc1
104
O=c1c2cc(F)ccc2sc2c(N3CCCCC3)nc3ccccc3c12
96.2
Cc1cccc2c1S/C(=C/c1ccc([N+](=O)[O-])cc1)C2=O
106

Which growth is reported with A549/ATCC NSCLC for this entry: "O=C(Cc1ccc(F)c(Cl)c1)Nc1cc(C2(C(F)(F)F)CC2)nn1Cc1ccccc1" ?
60.3

Which growth is reported with A549/ATCC NSCLC for this entry: "O=c1c2cc(F)cc(Cl)c2sc2c(NCCCNCCO)nc3ccccc3c12" ?
83.7

Which growth is reported with A549/ATCC NSCLC for this entry: "Cc1ccc(S(=O)(=O)N/N=C/C2(c3ccccc3)CC2)cc1" ?
82

Which growth is reported with A549/ATCC NSCLC for this entry: OC(c1ccccc1)C(NC(Cc1ccccc1)c1ccccc1)c1ccccc1 (stereo unspecified) ?
73.3

Which growth is reported with A549/ATCC NSCLC for this entry: "Cc1cc2nc3cc(C)c(N)cc3[n+](-c3ccccc3)c2cc1N" ?
75.1

---

Tested on: COLO 205 colon
method-notes: NCI-60 one-dose screen, 48 h
assay-setup: 10 µM unless noted
This is part of a sample that, as a whole, favours compounds with a hit. Of some 83,000 tested, about 20% had one in any assay. Activity calls are given as the source filed them. How the source made its calls: active means growth percent below 10; inactive means the rest.
Return exactly one item of t = active, f = inactive

Look up the recorded call for "COc1cccc(-c2nc(-c3ccc(NC(=O)OC(C)C)cc3)[nH]c2-c2ccnc(Br)c2)c1" in this test.
f

Look up the recorded call for "COc1ccc(-c2csc(NC(=O)N3CCN(c4cc5c(cc4F)c(=O)c(C(=O)O)cn5C4CC4)CC3)n2)cc1" in this test.
t

Look up the recorded call for "O=C(S)CNC(=O)c1ccccc1" in this test.
f

Look up the recorded call for "CCN(CC)CCNC(=O)c1cn2ncnc(Oc3ccc(NC(=O)Nc4ccc(Cl)c(C(F)(F)F)c4)cc3)c2c1C" in this test.
t

Look up the recorded call for "Cc1onc2c(-c3ccccc3)n[nH]c(=O)c12" in this test.
f

---

Test system: M14 melanoma
method-notes: NCI-60 one-dose screen, 48 h (100 = growth as untreated, 0 = no growth, -100 = all killed)
assay-setup: 10 µM unless noted
Compounds without any hit were thinned out: in the full panel of roughly 83,000, 20% have a hit.
# growth >= 70% gives class 1, anything below gives class 0

Is growth at least 70%? Consider "O=C(CSc1nc2ccccc2[nH]1)Nc1cccc(Cl)c1"
class 1

Is growth at least 70%? Consider CCCCCCCNC(=O)CCCNc1ncnc2c1ncn2-c1cccc(C(C)O)c1 (stereo unspecified)
class 1

Is growth at least 70%? Consider "CC(C)OC(=O)Nc1ccc(-c2nc(-c3cccc(OCCN4CCOCC4)c3)c(-c3ccnc(Br)c3)[nH]2)cc1"
class 0

Is growth at least 70%? Consider "CCCSc1nc2ccc(C)cc2cc1/C=[N+](\[O-])c1ccccc1"
class 0

Is growth at least 70%? Consider "COc1ccc(CNC(=O)[C@H](O)[C@@H](N)Cc2ccccc2)cc1"
class 1

---

# growth listing for each entry below
Test system: KM12 colon
method-notes: NCI-60 one-dose screen, 48 h (100 = growth as untreated, 0 = no growth, -100 = all killed)
assay-setup: 10 µM unless noted
Experimental: Growth inhibition of the KM12 human tumor cell line is measured as a screen for anti-cancer activity. Cells are grown in 96 well plates and exposed to the test compound for 48 hours. Compounds are tested at a single concentration, which is 10^-5 M for most compounds. The reported endpoint is percent growth (GI% or GIPRCNT), where numbers from 0 - 100% represent growth inhibition, and numbers from -100% - 0 represent cell death. For example, a value of 40 represents 60% growth inhibition. […]
This is part of a sample that, as a whole, favours compounds with a hit. Of some 83,000 tested, about 20% had one in any assay.
Note: unit % is implicit; provide only the numeric part.

Previously resolved entries follow.
CCCCCCCCCCCCCCCCCCOc1ccccc1CC(=O)OCC[N+](CC)(CC)CC
51.3
O=C(N=c1oc2ccccc2cc1-c1cc2ccccc2[nH]1)Nc1ccc(Cl)cc1
99.2
O=c1c2cc(F)cc(Cl)c2sc2c(NCCCNCCO)nc3ccccc3c12
66.7
CN(C)c1ccc2nc3ccc(=[N+](C)C)c([N+](=O)[O-])c-3sc2c1
34.6
N#Cc1cccc(NC(=O)c2cc(-c3ccc(F)cc3F)ccc2O)c1
7.89
NC(=O)Nc1ccc2ncnc(Nc3ccc(Cl)cc3)c2c1
98.5

API: the following record is the query input.
Which growth is reported with KM12 colon for this entry: "O=C(Nc1ccc(F)cc1F)c1cc(F)ccc1O" ?
8.7

---

Test system: K-562 leukemia
method-notes: NCI-60 one-dose screen, 48 h (100 = growth as untreated, 0 = no growth, -100 = all killed)
assay-setup: 10 µM unless noted
Procedure: Cells are grown in 96 well plates and exposed to the test compound for 48 hours. Compounds are tested at a single concentration, which is 10^-5 M for most compounds. The reported endpoint is percent growth (GI% or GIPRCNT), where numbers from 0 - 100% represent growth inhibition, and numbers from -100% - 0 represent cell death. For example, a value of 40 represents 60% growth inhibition. A value of 0 means no net growth occurred over the course of the experiment. […]
The panel holds about 83,000 compounds, 20% with a hit somewhere; the sample as a whole holds those more often. Calls of active or inactive are those of the source. Rule for the calls: active = growth percent below 10; inactive = the rest.
outcome-measure: growth

Previously resolved entries follow.
CN(C)CCCNc1nc2ccccc2c2c(=O)c3cc(F)ccc3sc12
-27% (active)
CCCCCCCCCCCCCCCCCC1OCC(COC(=O)O[C@]2(CC)C(=O)OCc3c2cc2n(c3=O)Cc3cc4ccccc4nc3-2)O1 (stereo not given in full)
88.4% (inactive)
N#Cc1ccc(NC(=O)c2sc3nc4c(cc3c2N)C(=O)CCC4)cc1
108% (inactive)
COc1ccc(C(=O)N=Nc2c(O)n(C)c3ccccc23)cc1
89.3% (inactive)

API: the following record is the query input.
Look at this molecule and give its reported growth. "CCCCCCN(CCCCCC)c1ccc(/C=C2/SC(=O)NC2=O)c(C)c1"
65.2% (inactive)

---

Test system: MDA-MB-435 melanoma
method-notes: NCI-60 one-dose screen, 48 h (100 = growth as untreated, 0 = no growth, -100 = all killed)
assay-setup: 10 µM unless noted
This is part of a sample that, as a whole, favours compounds with a hit. Of some 83,000 tested, about 20% had one in any assay.
# growth >= 70% gives T, anything below gives F

// below: answered molecules
Cc1ccc2nc(NC(=O)CSc3nc(Cl)c(C#N)c(-c4ccccc4)n3)sc2c1
T
O=C(CCc1nnc(-c2c(Cl)cccc2Cl)o1)c1nc2ccccc2[nH]1
F
CCCCn1c(=O)c(-c2cc(-c3ccc(Cl)cc3)nc(-c3ccc(Cl)cc3)c2)cc2cc(C)ccc21
T
COc1ccc(-c2conc2-c2ccccc2)cc1
F

Is growth at least 70%? Consider "CCCCCCNC(=O)Oc1ccc(/C(=C(\C)c2ccc(OC)cc2)c2ccc(OCCN3CCCCC3)cc2)cc1"
F

---

# growth listing for each entry below
Test system: NCI-H322M lung
method-notes: NCI-60 one-dose screen, 48 h (100 = growth as untreated, 0 = no growth, -100 = all killed)
assay-setup: 10 µM unless noted
This is part of a sample that, as a whole, favours compounds with a hit. Of some 83,000 tested, about 20% had one in any assay.
Note: unit % is implicit; provide only the numeric part.

Previously resolved entries follow.
CCN(CC)Cc1cc(Nc2c3ccc(Cl)cc3nc3ccc(OC)cc23)ccc1O
62.5
CCCCCCn1c(-c2ccc(C(=O)O/N=C(\N)c3ccc4c(c3)OCO4)cc2)nc(-c2ccccc2)c1-c1ccccc1
73.9

Look at this compound and give its reported growth. "O=[N+]([O-])c1ccc(Oc2nc(Nc3ccc(O[C@H]4CO[C@H]5[C@@H]4OC[C@@H]5O)c(Cl)c3)ncc2F)c(Cl)c1"
29.9

Look at this compound and give its reported growth. "Nc1cc2c(cc1Br)-c1cc(Cl)ccc1C2=O"
102

Look at this compound and give its reported growth. "CN(C)c1ccc(/C=N\Nc2cc(=O)[nH]c3ccc(Cl)cc23)cc1"
99.2

Look at this compound and give its reported growth. "CCCCn1c(-c2ccc(-c3nc(-c4ccc(Cl)cc4)no3)cc2)nc(-c2ccccc2)c1-c1ccccc1"
90.4

Look at this compound and give its reported growth. "COc1cc(C(=O)N/N=C/c2cc3cc(OCc4ccccc4)ccc3nc2OC)cc(OC)c1OC"
98

Look at this compound and give its reported growth. "O=c1[nH]c2c(ccc3cnccc32)c2c1CCC2"
-11.7

Look at this compound and give its reported growth. "COc1ccc(N)c(N)c1"
95.4

Look at this compound and give its reported growth. "COc1cc(C(=O)c2cnc(-c3c[nH]c4cccc(C)c34)[nH]2)cc(OC)c1OC"
40.3
